target: T1, human DLL4 extracellular domain (human, UniProt Q9NR61 27-529); assay: SPR (Biacore)
T1 construct: purified recombinant ECD; biotin-labelled or 6xHis-tagged depending on the assay; also called huDLL4 ECD; hu DLL4 ECD
T1 sequence (Q9NR61 27-529 limits assumed): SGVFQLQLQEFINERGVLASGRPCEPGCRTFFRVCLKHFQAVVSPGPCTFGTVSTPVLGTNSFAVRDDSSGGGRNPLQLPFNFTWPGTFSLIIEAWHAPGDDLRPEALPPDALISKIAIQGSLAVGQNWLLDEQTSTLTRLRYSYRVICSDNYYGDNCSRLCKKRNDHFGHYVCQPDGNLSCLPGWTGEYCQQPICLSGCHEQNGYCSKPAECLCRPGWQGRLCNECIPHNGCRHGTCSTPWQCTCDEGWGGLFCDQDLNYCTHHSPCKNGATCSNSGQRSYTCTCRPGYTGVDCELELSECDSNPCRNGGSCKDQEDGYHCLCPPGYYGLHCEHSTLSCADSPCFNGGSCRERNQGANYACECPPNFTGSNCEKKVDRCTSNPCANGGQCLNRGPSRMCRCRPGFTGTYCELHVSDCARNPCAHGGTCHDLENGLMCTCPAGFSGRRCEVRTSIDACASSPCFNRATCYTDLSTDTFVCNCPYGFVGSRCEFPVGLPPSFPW
READOUT NAME: koff (s⁻¹)
Please give a number only; it is taken to be in s⁻¹.

Reference set, count: 2
BINDER	READOUT NAME	QUANTITY UNIT	REPORTED MEASUREMENT
32C7 rat anti-DLL4 monoclonal antibody (antibody, rat IgG2a, V domains shown, rat IgG2a/k hybridoma mAb; also called MC10-32C7.5A4) VH: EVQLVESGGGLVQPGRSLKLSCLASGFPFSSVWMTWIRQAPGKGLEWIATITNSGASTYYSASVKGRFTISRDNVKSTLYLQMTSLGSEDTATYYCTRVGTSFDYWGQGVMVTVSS VL: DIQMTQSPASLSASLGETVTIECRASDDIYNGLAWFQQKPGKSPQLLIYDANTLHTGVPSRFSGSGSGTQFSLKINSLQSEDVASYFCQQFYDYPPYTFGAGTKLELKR	koff	s⁻¹	7e-06
14A11 rat anti-DLL4 monoclonal antibody (antibody, rat IgG2a, V domains shown, rat IgG2a/K hybridoma mAb; also called MC13-14A11.3A4) VH: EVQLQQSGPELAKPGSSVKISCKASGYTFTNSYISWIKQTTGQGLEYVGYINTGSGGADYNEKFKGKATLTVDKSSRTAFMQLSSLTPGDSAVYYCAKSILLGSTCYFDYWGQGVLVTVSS VL: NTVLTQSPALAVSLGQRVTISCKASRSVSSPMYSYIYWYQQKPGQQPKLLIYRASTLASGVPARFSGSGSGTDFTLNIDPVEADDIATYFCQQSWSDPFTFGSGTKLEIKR	koff	s⁻¹	0.0012

Next:
(Q) Reported koff, binder 37D10 rat anti-DLL4 monoclonal antibody (antibody, rat IgG2a, V domains shown, rat IgG2a/k hybridoma mAb; also called 40B10; 37D10 = 40B10) VH: AVQLVESGGGLVQPKESLKISCAASGFTFSNAAMYWVRLAPGKGLEWVARIRTKPNNYATYYAESVKGRFTISRDDSKSMVYVQMDNLKTEDTAMYYCTAAPWRDSYAHVYWGQGVMVTVSS VL: DIQMTQSPPVLSASVGDRVTLSCKASQNIHKNLDWYQQKHGDAPKLLIYYTDHLQTGVPSRFSGSGSATDYTLTISSLQPEDVATYYCYQYNGGPFTFGSGTKLEIKR : ____
(A) 0.07

Provenance of the data: patent US20110217237A1
